target: LARP1 LaM (UniProt Q6PKG0-3 323-410); experiment: ITC; 10 mM MES pH 6.3, 100 mM NaCl, 1 mM TCEP (HPLC and NMR buffer; ITC buffer not stated separately); ITC 293 K, NMR 25 C
measurement-kind: binding result

>>> reported_value("AAAUAA (ssRNA) [A3UA2]")
"binds"
>>> reported_value("ACAAAA (ssRNA) [ACA4]")
"binds"
>>> reported_value("AAACAA (ssRNA) [A3CA2]")
"binds"
>>> reported_value("AAAA (ssRNA) [A4]")
"binds"
